Please respond with reported off rate half life t½ for every item in the list.
System tested: T1, CHO human OPGL (hOPGL) 140 (human, UniProt O14788 140-317)
T1 construct: also called CHO hOPGL 140
T1 sequence (looked up): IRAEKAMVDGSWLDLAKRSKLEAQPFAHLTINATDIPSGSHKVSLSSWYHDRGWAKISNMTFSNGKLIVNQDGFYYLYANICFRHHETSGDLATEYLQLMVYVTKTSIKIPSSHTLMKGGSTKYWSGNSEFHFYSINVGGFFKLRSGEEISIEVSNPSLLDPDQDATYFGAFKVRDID
Assay summary: SPR (BIAcore 2000), antibody captured on Protein G, hOPGL 140 in solution 0.25-62 nM, Langmuir 1:1
Number first, unit second.

Input line: Reported off rate half life t½, binder 16E1 anti-OPGL antibody (antibody, V domains shown, Fully human IgG1 kappa from HuMab mice) VH: EVQLVQSGGGLVHPGGSLRLSCAGSGFTFSGHALHWVRQAPGKGLEWVSGIGTHGGTYYADSVKGRFTISRDNAKNSLFLQMNSLSAEDMAVYYCTRRNWGQFDYWGQGTLVTVSS VL: EIVLTQSPATLSLSPGERATLSCRASQSVSSYLAWYQQKPGQAPRLLIYDASNRATGIPARFSGSGSGTDFTLTISSLEPEDFAVYYCQQRSNWPPYTFGQGTKLEIKR : ____
Output line: 1.41 h

Input line: Reported off rate half life t½, binder 22B3 anti-OPGL antibody (antibody, human IgG1, kappa, V domains shown, Fully human IgG1 kappa from HuMab mice) VH: EVQLVQSGGGLVHPGGSLRLSCEGSGFTFSSNGMHWVRQTPGKGLEWVSGIGTAGGTYYADSVKGRFTISRDNVKKSLYLQMNSLRAEDMAIYYCVRKNWGWFDPWGQGALVTVSS VL: EIVLTQSPATLSLSPGERATLSCRASQSVNSYLAWFQQKPGQAPRLLIYDASNRATGIPARFSGSGSGTDFTLTISSLEPEDFAIYYCQQRSNWPPFTFGQGTKLEIKR : ____
Output line: 3.01 h

Input line: Reported off rate half life t½, binder 2E11 anti-OPGL antibody (antibody, V domains shown, Fully human IgG1 kappa from HuMab mice; also called 2 µl 1) VH: EVQLVQSGGDLVHPGGSLRLSCVGSGFTFSHYPLHWVRQAPGKGLEWISGIHTGGGTYYTDSVKGRFTISSDNAKNSLYLQMNTLRAEDMAVYYCARGRNSFDYWGQGTLVIVSS VL: DIQMTQSPSSLSASVGDRVTITCRASQGISSWLAWYQQKPEKAPKSLIYAASSLQSGVPSRFSGSGSGTDFTLTISSLQSEDFATYYCQQYNSYPPTFGQGTRLEIKR : ____
Output line: 1.46 h

Input line: Reported off rate half life t½, binder 18B2 anti-OPGL antibody (antibody, V domains shown, Fully human IgG1 kappa from HuMab mice) VH: EVQLVQSGGGLVHPGGSLRLSCVGSRFTFSAYPMHWVRQAPGKGLEWVSGIGSGGGTNYADSVKGRFTISRDTAKNSLYLQMNSLRAEDMAVYYCARGRNSFDYWGQGTLVTVSS VL: DIQMTQSPSSLSASVGDRVTITCRASQGISTWLAWYQQKPEKAPKSLIYAASSLQSGVPSRFSGSGSGTDFTLTISSLQPEDFATYYCQQYNSYPPTFGQGTKVEIKR : ____
Output line: 1.03 h

Values were extracted from patent US20040023313A1.
